Biological target: IRAK4 enzyme (Homo sapiens (Human), UniProt Q9NWZ3)
Sequence (Q9NWZ3 whole entry): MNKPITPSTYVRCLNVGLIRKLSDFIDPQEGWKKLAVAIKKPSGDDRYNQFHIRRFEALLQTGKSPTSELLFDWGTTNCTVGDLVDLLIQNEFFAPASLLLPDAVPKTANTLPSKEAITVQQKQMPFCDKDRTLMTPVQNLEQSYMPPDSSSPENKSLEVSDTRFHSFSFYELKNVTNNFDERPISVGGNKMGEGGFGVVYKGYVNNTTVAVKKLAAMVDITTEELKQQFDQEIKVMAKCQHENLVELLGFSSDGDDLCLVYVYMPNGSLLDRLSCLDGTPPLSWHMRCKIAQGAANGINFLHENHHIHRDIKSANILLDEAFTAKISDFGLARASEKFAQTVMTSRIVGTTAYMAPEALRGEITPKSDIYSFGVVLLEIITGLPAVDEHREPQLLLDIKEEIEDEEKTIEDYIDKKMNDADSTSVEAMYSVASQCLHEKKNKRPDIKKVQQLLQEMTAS
Experiment: biochemical
Assay type: biochemical
Conditions: IRAK4 enzyme, TR-FRET, 500 μM ATP
So I've got a bunch of molecules here, and I need their IC50 values.
Dear colleague, please return just the value in nM, with no unit written.

Per the record, CC(C)(O)[C@H](F)CNC(=O)c1cnc(-c2ccc3cc(C#N)cnn23)cc1NC12CCC(C(=O)N3CCN(C4COC4)CC3)(CC1)CC2 has IC50 of 3

The molecule COC[C@@H]1CCN(c2ccc(Nc3cc(-c4ccc5cc(C#N)cnn45)ncc3C(=O)NC[C@@H](F)C(C)(C)O)cn2)C1 showed IC50 equal to 1

Documented IC50 of CC(C)(O)[C@H](F)CNC(=O)c1cnc(-c2ccc3cc(C#N)cnn23)cc1NCc1cn[nH]c1 : 1000

Lookup result for CC(C)(O)[C@H](F)CNC(=O)c1cnc(-c2ccc3cc(C#N)cnn23)cc1Nc1cnn(C2CCNCC2)c1 ; measured IC50: 1

Kindly note the recorded IC50 for Cc1nsc(Nc2cc(-c3ccc4cc(C#N)cnn34)ncc2C(=O)NC[C@@H](F)C(C)(C)O)n1 , which is 4

Given item COc1nccc(Nc2cc(-c3ccc4cc(C#N)cnn34)ncc2C(=O)NC[C@@H](F)C(C)(C)O)n1 , the value recorded as its IC50 is 1

###

For each of the compounds below, state its pEC50.
Tested on: TNFα
Assay: cells
Type: cell-based, human
Conditions: Homo sapiens, Monocyte, LPS-stimulated human monocytes, TNFα content; read-out: EC50 TNF
Scale explanation: pEC50 corresponds to minus log10 of a concentration expressed in moles per litre.

Per the record, CC(C)Nc1cc(-c2ccc3cc(C#N)cnn23)ncc1C(=O)NCCCS(C)(=O)=O [Example 85] has pEC50 of 7.17

pEC50 measured on CC1(O)CC2(CC(Nc3cc(-c4ccc5cc(C#N)cnn45)ncc3C(=O)NC[C@@H](F)C(C)(C)O)C2)C1 (stereo partly shown) [Example 510] = 7.41

Per the record, CNC(=O)c1cnc(-c2ccc3cc(C#N)cnn23)cc1NC12CCC(C(=O)NC)(CC1)C2 [Example 468] has pEC50 of 6.95

Entry N#Cc1cnn2c(-c3cc(N[C@H]4CCC[C@@H](O)C4)c(C(=O)NC4CC4(F)F)cn3)ccc2c1 (stereo partly shown) [Example 430] , pEC50 reported as 6.31

###

Target: IRAK4 enzyme (Homo sapiens (Human))
Test: biochemical
Assay type: biochemical
Conditions: IRAK4 enzyme, TR-FRET (HTRF), 500 μM ATP
value-type: pIC50
Answer as the number alone; pIC50 is minus log10 of concentration in mol/L.

The compound listed as COC(=O)NCC1(O)CC(Nc2cc(-c3ccc4cc(C#N)cnn34)ncc2C(=O)NC[C@@H](F)C(C)(C)O)C1 (single isomer, unassigned) [Example 759] shows pIC50 equal to 8.52

Record N#Cc1cnn2c(-c3cc(NC45CCC(O)(CC4)CC5)c(C(=O)NC45CCC(O)(CC4)CC5)cn3)ccc2c1 , field pIC50: 8.70

Item: CC(C)(O)c1coc(CNC(=O)c2cnc(-c3ccc4cc(C#N)cnn34)cc2NC23CCC(O)(CC2)CC3)n1 | pIC50: 8.70

Per the record, CNC(=O)c1cnc(-c2ccc3cc(C#N)cnn23)cc1N[C@H]1CCC[C@@H](O)C1 has pIC50 of 8.52

Entry CC(C)(O)[C@H](F)CNC(=O)c1cnc(-c2ccc3cc(C#N)cnn23)cc1Nc1cccnn1 , pIC50 reported as 8.52

Lab note: measured pIC50 of Cc1n[nH]c2cc(Nc3cc(-c4ccc5cc(C#N)cnn45)ncc3C(=O)NC[C@@H](F)C(C)(C)O)ccc12 was 9.00
